// provenance: patent US20210301005A1

# system: T1, human TGFβ3, mature dimeric form (human, UniProt P10600 301-412)
# T1 sequence: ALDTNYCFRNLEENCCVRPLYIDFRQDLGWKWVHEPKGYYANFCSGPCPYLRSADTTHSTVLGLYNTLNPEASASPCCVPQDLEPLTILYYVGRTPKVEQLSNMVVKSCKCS
# assayMethodText: cell-based or functional assay
reportedEndpoint: HEKBlue TGFβ blocking IC50

Look over these answered cases.
Reported HEKBlue TGFβ blocking IC50 for h6F12.v1 (antibody, human IgG1, kappa, N297G, V domains shown) VH: EVTLKESGPVLVKPTETLTLTCTVSGFSLTTYNVHWVRQPPGKALEWMGLIWNTGGTRYNSALKSRLTISKDTSKSQVVLTMTNMDPVDTATYYCARDPVPNKWHFDFWGPGTLVTVSS VL: DIQMTQSPSTLSASVGDRVTITCLASEDIYSNLAWYQQKPGKSPKLLIYDARSLQDGVPSRFSGSESGPEYTLTISSLQPDDFATYFCQQHHAYPFTFGQGTKVEIKR was > 200 nM

Reported HEKBlue TGFβ blocking IC50 for 6F12 (antibody, V domains shown, anti-TGFβ2; called rat and rabbit in different places; also called rat 6F12; r6F12) VH: QVQLKESGPGLVQPSQTLSLTCTVSGFSLTTYNVHWVRQPPGKGLEWMGLIWNTGGTRYNSALKSRLSISKDTSKSQVFLRMNSLQTEDTATYYCARDPVPNKWHFDFWGPGTMVTVSS VL: DIQMTQSPASLSASLGETVTIECLASEDIYSNLAWYQQKPGKSPQLLIYDARSLQDGVPSRFSGSESGPQYSLEINSLQSEDAVTYFCQQHHAYPFTFGSGTKLEIK was > 200 nM

More entries:
Reported HEKBlue TGFβ blocking IC50 for h6F12.v4 (antibody, human IgG1, kappa, N297G, V domains shown) VH: EVQLQESGPGLVKPSETLSLTCTVSGFSLTTYNVHWVRQPPGKGLEWMGLIWNTGGTRYNSALKSRLTISKDTSKSQVSLKLSSVTAADTAVYYCARDPVPNKWHFDFWGPGTLVTVSS VL: EIVMTQSPATLSVSPGERATLSCLASEDIYSNLAWYQQKPGQSPRLLIYDARSLQDGVPARFSGSESGPEYTLTISSLQSEDFAVYFCQQHHAYPFTFGQGTKVEIKR was > 200 nM
